# System: MS2 coat protein
# Experimental protocol: apparent KD of MS2 coat protein; designed switch direction (-1 OFF switch, 1 ON switch): 1; higher = weaker reporter binding
# Run parameters: input ligand: FMN 200 uM
Please mark Satisfied if the recorded apparent KD of MS2 coat protein is equal to or greater than 40 nM, and Not satisfied if it falls below.

// below: answered sequences
AAGUGGUCCCAAGGAUAUGUCCAAAAGAAGGGCUGAGACAUGAGGAUCACCCAUGUCUCGGCGGUACAGAAGGUGGAGACAGGU [Solaena] (Eterna round: R96, puzzle: Same State NG 2) | Not satisfied
GGACGUCAUCUCACUGAUUAAACAUGAGGAUCACCCAUGUCACAGGAUAUGGAUCCGAUUAGGAUCCAGAAGGGUGUGACGUCC [Fiskers NG3ss - 43] (Eterna round: R96, puzzle: Same State NG 3) | Not satisfied
AGCUAGUACCGAGGAUAUACUUACAUGAGGACUACCCAUGUAUACAUGGUUCAAUAGGACUACAUGUAGAAGGCGGUACUAGCA [jandersonlee JLSSNG2 1.24 1FMN F5CU+F7U.1] (Eterna round: R96, puzzle: Same State NG 2) | Satisfied

Prompt: Threshold query (apparent KD of MS2 coat protein >= 40 nM) on GAGCUCCAACGCGGAGCUCCACAUGAGGAUCACCCAUGUACACAGGAUAUCACUCCCUUUGGGAGUGAGAAGGGUGGUUCGGAA [Bebeave] (Eterna round: R96, puzzle: Same State NG 3)
Completion: Satisfied

Prompt: Please check the record AUCCGGAAGCGAGGAUAUGCAGAGGAUCACCCUGCAGAAGGCGCAAAAGCGAGGAUAUGCAGAGGAUCACCCUGCAGAAGGCGC [pwkr ssNG DX.28] (Eterna round: R96, puzzle: Same State NG 1) and state if its apparent KD of MS2 coat protein is at or above 40 nM.
Completion: Not satisfied

Prompt: Decide: is the reported value of apparent KD of MS2 coat protein for GGUAGGUUACUACCAACACAUGAGGAUCACCCAUGUUUUCAUGAGGAUAUGGUACCUAUUUGGUACCAGAAGGCAUGGUUAAUU [Fiskers NG3ss - 18] (Eterna round: R96, puzzle: Same State NG 3) equal to or greater than 40 nM?
Completion: Satisfied

Prompt: Threshold query (apparent KD of MS2 coat protein >= 40 nM) on UUUAUACAUGAGGAUCACCCAUGUCAACAAAGUCGAGGAUAUGGGCAUAUUAUCUUAUUUCCAGAAGGCGAAUUCU [salish99_ss1_r3_090] (Eterna round: R96, puzzle: Same State 1)
Completion: Satisfied

Prompt: Say whether UGUUGAAACUGAGGAUAUGGCGUGUGACGAAUGCCAGAAGGUAGUAGGAGCAACAUGAGGAUCACCCAUGUCCGGCGCAGACCC [Eternabot solution 16] (Eterna round: R96, puzzle: Same State NG 1) shows apparent KD of MS2 coat protein of 40 nM or more.
Completion: Satisfied

Prompt: Hi team, for UUAAUGAUGUAAGGAUAUACAUGAGGAUUUCUCGUAGAAGGUACAGGACAUGAGGAUCACCCAUGUGUCGCUCAGAAGAGCGUA [Mat - Same State NG 1 - JL mod - D17] (Eterna round: R96, puzzle: Same State NG 1) , is the recorded apparent KD of MS2 coat protein at or above 40 nM?
Completion: Satisfied
